Each recorded value in this set is attributed to the supplement of paper PMC9170038.

Test system: K4 kissing-loop RNA reporter;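 note: bound reporter read as fluorescence of individual clusters on recovered sequencing chips by microscopy, with normalized cluster intensities fitted with a binding model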
protocol description: apparent KD of K4 kissing-loop reporter; higher = weaker reporter binding
condition info: Eterna round: R107; input ligand: theophylline 20 uM
Entry flag: yes if apparent KD of K4 kissing-loop reporter reaches 200 nM; no if it does not.

Example entries begin here.
| construct sequence | label class |
| --- | --- |
| GCCGUACGCAUGGAUACCAGUCUAAGAGUGAUGUUCUUACCGAUUGCGCCUGGAUCAUUAGACCCUUGGCAGCCAUGCGUACGGC | no |
| GAUGAAGAGUCGUUAGUUAGGGCUUUCGAUACCAGCGCCCGUCCACGCCCUUGGCAGCGAUUGAAAGAGUGAUGUUCUGUCAGGA [theeternabot_exclusion_KL_Theo_A_31] | yes |
| AGGCAAUAUGCGGCCGCCACUUUCAGUGAUGUUGAGACGCGGAAUGUUGUAUAAUAUCGCCACGAAAGGACCGGGCAAGGGAAAG [theeternabot_exclusion_KL_Trp_B_5] | yes |
| AAAUCUUUCAGAAGGAGCGUGGAUUAUUCAUAUAUAUUUAUUACGAGUGAUGUUCGUAAUUCACAGGUAGGUCGCUGUUCAAUAA [JR_ExcArginiB_Sub005] | no |
| AGCCGAAAGGCGAGUGCUGUCACUCCGGAAGGAGCGCCCAAAAGGGCAGGUAGGUCGCCGGAGUGAUGUUCCGGUGCAGCACUCA [Omei KL Arginine A Exc B v3] | yes |
| AAGCAUUCUUCGGAAUGCAGACCCGCUGAGGAGGAUAUGACGAAAGUCAGAAGGCCUCAGUGAUGUUGAGGCCUCCUCAAUGGUC [Omei KL FMN A Exc A v1] | no |

Shifting focus to the sequence that follows.
Quick check: does GCAUCCAUGGCAGGAUAUAGGUUCGUGGAGUGAUGUUCCAUAGCCCGAGUGAUGUUCGUUAUCCACCUAGAAGGGCCAUGGAUGC [whbob_Ex_FMNB__2th212] have apparent KD of K4 kissing-loop reporter greater than or equal to 200 nM?
yes
